Target: SARS-CoV spike S1 subunit (SARS-CoV, UniProt P59594 SEQ:14-667)
Assay: BLI
Conditions: tags: SinoBiological; label: 5'-biotin
metric: binding result

// worked examples, binding result included
[[record]]
binder = "S1_A3-B (ssDNA) DNA: CCAGTGTAGACTACTCAATGCCGATGGGTCGGGGGGGTGGGTAGGCATTGATCGCTCCTTTCGTACTATCCACAGGTCAACC"
assay_result = "no binding"

[[record]]
binder = "S1_C1-A (ssDNA) DNA: CCAGTGTAGACTACTCAATGCTGTGTTGACTTGATCCTGTGGTATTTGGGTGGGAGGGGCGGGTACTATCCACAGGTCAACC"
assay_result = "no binding"

[[record]]
binder = "S1_A8 (ssDNA) DNA: CCAGTGTAGACTACTCAATGCTGTGTTGACTTGATCCTGTGGTATATGGGTGGGAGGGTCGGGTACTATCCACAGGTCAACC"
assay_result = "no binding"

[[record]]
binder = "S1_D11-B (ssDNA) DNA: CCAGTGTAGACTACTCAATGCCGGCCGGGAGGGAGGGGTGGGTAAAGCCGCGCAACATATAGTACTATCCACAGGTCAACC"
assay_result = "binds"


Continue with the next binder.
**Q:** Look up and state reported binding result for S1_E3 (ssDNA) DNA: CCAGTGTAGACTACTCAATGCCGATGGGTCGGGTGGGTGGGTAGGCATTGATCGCTCCTCCGTACTATCCACAGGTCAACC
**A:** no binding
